Below: a set of entries, each annotated with reported TGI.
# System: COLO 205 colon
# RUN DESCRIPTION: NCI tumour cell line growth inhibition, 48 h
REPORTED METRIC: TGI

1. COC(=O)Cc1nn2c(nc1=O)sc1ccc3ccccc3c12 = > 100 µM
2. O=C1C(Cl)C(c2ccc([N+](=O)[O-])cc2)N1n1cnc2ccccc2c1=O (centres undefined) = > 100 µM
3. CCN(CCN(CC)C(=O)NC)C(=O)NC = > 100 µM
4. CCCCCCn1c2c(c3c(O)cccc31)C(=O)c1ccccc1-2 = > 100 µM
5. COc1c(C)c(C/C=C(\C)CCCCO)c(OC)c2ccccc12 = > 100 µM
6. Cn1c(=O)c(-c2c(Cl)cccc2Cl)cc2cnc(Nc3ccc(I)cc3)nc21 = 0.324 µM
7. COC(=O)[C@H](C)[C@@H]1CC[C@](C)(CCC2=C(C)CCCC2(C)C)OO1 = > 25 µM
8. Cc1cc(C)c(C2=NO[C@@H]3C(=O)N(c4ccc(Cc5ccc(N6C(=O)[C@H]7C(c8c(C)cc(C)cc8C)=NO[C@H]7C6=O)cc5)cc4)C(=O)[C@H]23)c(C)c1 = > 100 µM
9. CC/C(=C(/CC)c1ccc(O)cc1)c1ccc(O)cc1 = 19.7 µM
10. COC(=O)C1CCCN1C(=O)OC(C)(C)C (centres undefined) = > 100 µM
11. CCN(CC)CC(O)c1cc(-c2ccc(Cl)cc2)nc2cc(Cl)ccc12 (centres undefined) = 3.34 µM
12. CCOC(=O)c1cc([N+](=O)[O-])cc([N+](=O)[O-])c1Sc1ncnc2nc[nH]c12 = 5.03 µM
13. O=C1C(c2c(O)[nH]c3ccc(I)cc23)=Nc2ccccc21 = > 100 µM
14. COc1cc(OC)c(/C=C/C(=O)c2c(O)cc(OC)c(C3CCN(C)CC3)c2OC)c(OC)c1 = 3.23 µM
15. COc1c(OC)c(OC)c(-c2cc(=O)c3c(OC)c(OC)c(OC)c(OC)c3o2)c(OC)c1OC = > 100 µM
16. CCOC(=O)C(NC(=O)c1ccccc1)(Nc1ccc(S(=O)(=O)Nc2ccc(OC)nn2)cc1)C(F)(F)F (centres undefined) = > 100 µM
17. NCCN(CCN)/[N+]([O-])=N/O = > 100 µM
18. O=C1NC(Cc2ccccc2)C(=O)N2CCCC12 (centres undefined) = > 100 µM
19. Cn1c(=O)oc2cc(C(=S)N3CCCCC3)ccc21 = > 100 µM
20. O=C1[C@H](O)[C@@H]2CCC[C@@]23CCCN13 = > 100 µM
21. Cc1cc2c(C)nn(Cc3ccccc3Cl)c2c(C#N)c1C = > 100 µM
22. CC(C)(/C=N/O)/[N+]([O-])=C/c1ccccc1 = > 100 µM
23. O=C1NC2OC(CO)C(O)C(O)C2O1 (centres undefined) = > 100 µM
24. c1cnc2nc3n(c2c1)CSC3 = > 100 µM
25. CCCCC1N=CNc2c1ccc1c2[nH]c2ccccc21 (centres undefined) = 3.27 µM
26. O=[N+]([O-])c1cccc([I+]c2ccccc2)c1 = 33.6 µM
27. N#CC(C#N)C1CN2CCC1CC2 (centres undefined) = > 100 µM
28. COC(=O)C1=Cc2cn(S(=O)(=O)c3ccc(C)cc3)c3cccc(c23)C(C=C(C)C)N1C(C)=O (centres undefined) = 18.3 µM
29. COc1cc(=O)oc(/C=C/CO)c1C = > 100 µM
30. Cn1c2c(c3ccccc31)CCN(CCCN1CCN(c3ccccc3)CC1)C2=O = 37 µM
31. CC1(C)OC2OC(C(=O)c3ccccc3)C3OC(C)(C)OC3C2O1 (centres undefined) = > 100 µM
32. Cc1ccc(S(=O)(=O)OC2CSSCC2OS(=O)(=O)c2ccc(C)cc2)cc1 (centres undefined) = 26.6 µM
33. C=C1CCC2(C(C)=O)COC1(C)O2 (centres undefined) = > 100 µM
34. Nc1nc(Cl)nc2c1ncn2C1OC(CO)C(O)C1O (centres undefined) = > 100 µM
35. C[C@]12CCC(=O)C=C1CC[C@@H]1C2CC[C@@]2(C)C1CC[C@@H]2OC(=O)C12OC1CCC2=O (some centres undefined) = 34.4 µM
36. COC(=O)[C@@H](NC(=O)c1ccc(CNC(=O)/C(C)=C/c2ccccc2)cc1)C(C)C = > 100 µM
37. COc1cc(-c2ccc(=O)oc2C#Cc2ccccc2)cc(OC)c1OC = > 100 µM
38. O=C1c2ccccc2-c2ccccc2C1(Cl)Cl = 3.47 µM
39. CCOC(=O)[C@@]12NN=N[C@@H]1[C@H]1CO[C@H](c3ccccc3)N1C2=O = 23.5 µM
40. COc1ccc(Oc2nc3c(N)cc(C(F)(F)F)cc3nc2-c2ccccc2)cc1 = 25.6 µM
41. O=C(c1ccccc1)c1c2n(c3c1cc(O)c1ccccc13)CCN2 = 3.31 µM
42. CN1CCN(Cn2nc(-c3cc(F)c(Cl)cc3Cl)oc2=S)CC1 = 51.6 µM
43. COc1ccc(N2C(=O)C3C=CC(n4[nH]c(=O)n(Cc5ccccc5)c4=O)CC3C2=O)cc1 (centres undefined) = > 100 µM
44. COc1ccc2nc3c([N+](=O)[O-])ccc(NCCCN(C)C)c3c(N)c2c1 = 2.29 µM
